Numbers sourced from paper PMC2756588.

# experimental.target: T1, Fus1, P11710
# T1 sequence (P11710 432-512, looked up): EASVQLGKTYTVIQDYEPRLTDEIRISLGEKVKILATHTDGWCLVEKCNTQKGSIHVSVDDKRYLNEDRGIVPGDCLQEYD
# procedure.details: SPOT array
# condition.parameters: median of control spots 1200
parameter.measured: SPOT intensity

{"columns": ["binder", "parameter.measured", "observed.value"],
 "data": [
  ["NHSRSLFSLPGNQQS", "SPOT intensity", 653],
  ["PKRRAPPPVPKKPSS", "SPOT intensity", 6],
  ["SRYRRPLTLLLLKPF", "SPOT intensity", 15],
  ["NNNKMRPHLPPLSSG", "SPOT intensity", 1],
  ["DTFLPPPPPPPSNFE", "SPOT intensity", 0],
  ["FPGKKSPRLPHRNKK", "SPOT intensity", 0]
]}

a: FLIKFTPKFPQSIDH
b: KIRRSSLMIPNPQQF
c: YLTRPLPSTPNEDSR
Lookup: Arrange the 3 binders by rising SPOT intensity, starting with the smallest. Form entry: ranked labels (order as requested).
Found: c, b, a
